subject of test: CFHR1-HIS (Complement factor H-related protein 1) (UniProt Q03591 19-330)
Sequence (Q03591 19-330): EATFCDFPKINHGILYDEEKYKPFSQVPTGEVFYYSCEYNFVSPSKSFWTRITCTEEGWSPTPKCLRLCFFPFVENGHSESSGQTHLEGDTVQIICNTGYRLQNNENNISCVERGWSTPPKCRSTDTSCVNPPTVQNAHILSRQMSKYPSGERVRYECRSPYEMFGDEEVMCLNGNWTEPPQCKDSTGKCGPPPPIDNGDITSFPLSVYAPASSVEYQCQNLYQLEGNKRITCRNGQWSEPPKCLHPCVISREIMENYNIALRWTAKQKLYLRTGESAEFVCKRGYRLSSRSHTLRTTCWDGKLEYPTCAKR
assay method text: SPR; aptamer immobilized; 20 mM Tris-HCl pH 7.4, 140 mM NaCl, 5 mM MgCl2, 1 mM CaCl2, 1 mM KCl; FLAA/MST with 0.1% BSA and 0.05% Tween 20 (FLAA at RT); SPR without BSA, 0.005% Tween 20
stated conditions: protein: commercial; tags: C-terminal HIS; label: 5'-BiotinTEG (SPR kinetics); 5'-Cy5 (MST); none (screens)
measured metric: pKd
Entry type: numeric. Quantity: pKd, the -log10 of concentration in molar units.

QUERY: # input binder: NDM1-H14-01 (ssDNA) DNA: GTATCTGGTGGTCTATGGCGTCATAGGTACCATGGGGGACTGCTCGGGATTGCGGATTCATGGCATAGACGACGAAGAAC ; wanted: its pKd
RESULT: 10.35
